Measured values drawn from patent US11655243B2 for this set.

The following molecules are shown together with reported pKi values.
# MEASURED_TARGET: human CNR2 receptors (CB2 receptor) (Homo sapiens (Human))
# Sequence (P34972 whole entry): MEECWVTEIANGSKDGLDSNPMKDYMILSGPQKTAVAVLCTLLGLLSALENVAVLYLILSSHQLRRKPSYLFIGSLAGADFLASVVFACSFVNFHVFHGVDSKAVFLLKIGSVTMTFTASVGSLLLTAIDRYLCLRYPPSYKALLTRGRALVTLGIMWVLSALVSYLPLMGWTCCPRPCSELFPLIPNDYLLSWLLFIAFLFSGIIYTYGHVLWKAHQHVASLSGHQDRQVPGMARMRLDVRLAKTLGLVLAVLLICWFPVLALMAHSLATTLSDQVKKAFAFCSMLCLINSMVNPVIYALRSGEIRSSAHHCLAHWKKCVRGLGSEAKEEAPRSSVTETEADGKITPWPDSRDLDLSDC
# PROTOCOL_TEXT: Radioligand binding assay, human CB2 (CNR2)
# TEST_SETTINGS: membranes of HEK cells expressing human CNR2, 2.6 nM [3H]-CP-55,940 radioligand; read-out: Binding assay human CB2 Ki
# Procedure: Radioligand Binding Assay The affinity of the compounds of the invention for cannabinoid CB1 receptors was determined using recommended amounts of membrane preparations (PerkinElmer) of human embryonic kidney (HEK) cells expressing the human CNR1 or CNR2 receptors in conjunction with 1.5 or 2.6 nM [3H]-CP-55,940 (Perkin Elmer) as radioligand, respectively. […]
// field semantics: pKi = negative decimal log of concentration (mol/L)

Use these answered entries as a reference point.
CCC(CC)(NC(=O)c1ccc(N2CC(OC)C2)c(OC[C@@H]2C[C@H]2CO)n1)C(=O)OCCF ... 7.94
CCC(CC)(NC(=O)c1ccc(N2CC(OC)C2)c(OC[C@@H]2C[C@H]2CO)n1)C(=O)OCF ... 8.01
CCC(CC)(NC(=O)c1ccc(N2CC(OC)C2)c(OC[C@H]2C[C@@H]2CO)n1)C(=O)OCCCF ... 9.15
CCC(CC)(NC(=O)c1ccc(N2CC(F)C2)c(OC[C@@H]2C[C@H]2CO)n1)C(=O)N[C@H](CO)CC(C)C (single isomer, unassigned) ... 5.38
CCOC(=O)C(CC)(CC)NC(=O)c1ccc(N2CC(OC)C2)c(OC[C@H]2C[C@@H]2CF)n1 (mixture of isomers) ... 9.30
CCC(CC)(NC(=O)c1ccc(N2CC(F)C2)c(OC[C@H]2C[C@@H]2CO)n1)C(=O)N[C@H](CO)CC(C)C (single isomer, unassigned) ... 5.40
CC(C)C[C@@H](COCCF)NC(=O)c1ccc(N2CCCC2)c(OCC2COC2)n1 ... 7.68
[2H]C([2H])(F)C([2H])([2H])C([2H])([2H])OC(=O)C(CC)(CC)NC(=O)c1ccc(N2CC(OC)C2)c(OC[C@H]2C[C@@H]2CO)n1 ... 9.10
CCC(CC)(NC(=O)c1ccc(N2CC(OC)C2)c(OC[C@H]2C[C@@H]2CO)n1)C(=O)OCCF (stereo in doubt) ... 9.52

Kindly consider the entry below.
What value of measured pKi is listed for CCOC(=O)C(CC)(CC)NC(=O)c1ccc(N2CC(OC)C2)c(OC[C@@H]2C[C@@H]2COCF)n1 (mixture of isomers) ? 8.34

* * *

# MEASURED_TARGET: human CNR2 receptors (CB2 receptor) (Homo sapiens (Human))
# PROTOCOL_TEXT: Radioligand binding assay, human CB2 (CNR2)
# TEST_SETTINGS: membranes of HEK cells expressing human CNR2, 2.6 nM [3H]-CP-55,940 radioligand; read-out: Binding assay human CB2 Ki
The following compounds are shown together with reported pKi values.
// field semantics: pKi = negative decimal log of concentration (mol/L)

Use these answered entries as a reference point.
C=CC(C=C)(NC(=O)c1ccc(N2CC(OC)C2)c(OC[C@H]2C[C@@H]2CO)n1)C(=O)OCCCF ... 6.28
CCOC(=O)C(CC)(CC)NC(=O)c1ccc(N2CC(OC)C2)c(OC[C@H]2C[C@@H]2COCF)n1 (stereo in doubt) ... 9.70

Kindly consider the entry below.
What value of measured pKi is listed for CCC(CC)(NC(=O)c1ccc(N2CC(OC)C2)c(OC[C@H]2C[C@@H]2CO)n1)C(=O)N[C@H](CO)CC(C)C ? 6.89
